species: Cavia porcellus; experiment: Concentration required to reduce maximum following frequencu (MFF) of isolated guinea pig atria by 25%; assay type: functional
Catalogue of compounds with associated EC25

[
  {
    "Compound": "CNC1[C@H](O)C[C@H]2[C@@H]3CCc4cc(OC(C)=O)ccc4[C@H]3CC[C@]12C (stereo partly drawn)",
    "EC25 (µg/mL)": 5.06
  },
  {
    "Compound": "CN(C)C1CC[C@H]2[C@@H]3CCc4cc(O)ccc4[C@H]3CC[C@]12C (stereo partly drawn)",
    "EC25 (µg/mL)": 1.65
  },
  {
    "Compound": "CCCNCC(O)COc1ccccc1C(=O)CCc1ccccc1 (stereo not drawn) [PROPAFENONE]",
    "EC25 (µg/mL)": 1.85
  }
]

====

organism: Cavia porcellus; test: Concentration required to reduce maximum following frequencu (MFF) of isolated guinea pig atria by 25%; type: functional

[
  {
    "Compound": "CN(C)C1CC[C@H]2[C@@H]3CCc4cc(OCC(O)CNC(C)(C)C)ccc4[C@H]3CC[C@]12C (some centres undefined)",
    "EC25 [µg/mL]": 24.1
  },
  {
    "Compound": "CNC1[C@H](O)C[C@H]2[C@@H]3CCc4cc(OCC(O)CNC(C)(C)C)ccc4[C@H]3CC[C@]12C (some centres undefined)",
    "EC25 [µg/mL]": 38.6
  },
  {
    "Compound": "CNC1CC[C@H]2[C@@H]3CCc4cc(OCC(O)CNC(C)(C)C)ccc4[C@H]3CC[C@]12C (some centres undefined)",
    "EC25 [µg/mL]": 25.8
  },
  {
    "Compound": "CC(C)NCC(O)COc1ccc2c(c1)CC[C@@H]1[C@@H]2CC[C@]2(C)C(N(C)C)[C@H](O)C[C@@H]12 (some centres undefined)",
    "EC25 [µg/mL]": 13.7
  }
]

====

species: Cavia porcellus; test: Concentration required to reduce maximum following frequencu (MFF) of isolated guinea pig atria by 25%; type: functional
hey, just use TRUE if measured EC25 is less than 10 µg/mL, otherwise FALSE

[
  {
    "Compound": "CN(C)C1[C@H](O)C[C@H]2[C@@H]3CCc4cc(O)ccc4[C@H]3CC[C@]12C (stereo partly drawn)",
    "Class": "TRUE"
  },
  {
    "Compound": "CNC1CC[C@H]2[C@@H]3CCc4cc(O)ccc4[C@H]3CC[C@]12C (stereo partly drawn)",
    "Class": "TRUE"
  },
  {
    "Compound": "CNC1[C@H](O)C[C@H]2[C@@H]3CCc4cc(OCC(O)CNC(C)C)ccc4[C@H]3CC[C@]12C (stereo partly drawn)",
    "Class": "FALSE"
  },
  {
    "Compound": "CN(C)C1[C@H](O)C[C@H]2[C@@H]3CCc4cc(OCC(O)CNC(C)(C)C)ccc4[C@H]3CC[C@]12C (stereo partly drawn)",
    "Class": "FALSE"
  },
  {
    "Compound": "CC(C)NCC(O)COc1ccc2c(c1)CC[C@@H]1[C@@H]2CC[C@]2(C)C(N(C)C)CC[C@@H]12 (stereo partly drawn)",
    "Class": "FALSE"
  },
  {
    "Compound": "CNC1CC[C@H]2[C@@H]3CCc4cc(OCC(O)CNC(C)C)ccc4[C@H]3CC[C@]12C (stereo partly drawn)",
    "Class": "FALSE"
  },
  {
    "Compound": "CC(=O)Oc1ccc2c(c1)CC[C@@H]1[C@@H]2CC[C@]2(C)C(N(C)C)[C@H](O)C[C@@H]12 (stereo partly drawn)",
    "Class": "TRUE"
  },
  {
    "Compound": "CNC1[C@H](O)C[C@H]2[C@@H]3CCc4cc(O)ccc4[C@H]3CC[C@]12C (stereo partly drawn)",
    "Class": "TRUE"
  }
]

====

tested on: Rattus norvegicus; assay: Mean change in heart rate recorded 14 min after the administration of compound.; type: functional

[
  {
    "Molecule": "CNC1CC[C@H]2[C@@H]3CCc4cc(OCC(O)CNC(C)C)ccc4[C@H]3CC[C@]12C (some centres undefined)",
    "Change": "-22.6%"
  },
  {
    "Molecule": "CC(=O)Nc1ccc(OCC(O)CNC(C)C)cc1 (centres undefined) [PRACTOLOL]",
    "Change": "-23.5%"
  },
  {
    "Molecule": "CCCNCC(O)COc1ccccc1C(=O)CCc1ccccc1 (centres undefined) [PROPAFENONE]",
    "Change": "-11.7%"
  },
  {
    "Molecule": "CNC1[C@H](O)C[C@H]2[C@@H]3CCc4cc(OCC(O)CNC(C)(C)C)ccc4[C@H]3CC[C@]12C (some centres undefined)",
    "Change": "-29.2%"
  }
]

====

tested on: Rattus norvegicus; test: Mean change in heart rate recorded 14 min after the administration of compound.; assay type: functional
Outcome: met for Change of at least -10%; not met for anything lower.

[
  {
    "Molecule": "CN(C)C1CC[C@H]2[C@@H]3CCc4cc(OCC(O)CNC(C)(C)C)ccc4[C@H]3CC[C@]12C (some centres not stated)",
    "Class": "met"
  },
  {
    "Molecule": "CNC1CC[C@H]2[C@@H]3CCc4cc(OCC(O)CNC(C)(C)C)ccc4[C@H]3CC[C@]12C (some centres not stated)",
    "Class": "not met"
  },
  {
    "Molecule": "CNC1[C@H](O)C[C@H]2[C@@H]3CCc4cc(OC(C)=O)ccc4[C@H]3CC[C@]12C (some centres not stated)",
    "Class": "not met"
  },
  {
    "Molecule": "CN(C)C1[C@H](O)C[C@H]2[C@@H]3CCc4cc(OCC(O)CNC(C)(C)C)ccc4[C@H]3CC[C@]12C (some centres not stated)",
    "Class": "not met"
  },
  {
    "Molecule": "CC(C)NCC(O)COc1ccc2c(c1)CC[C@@H]1[C@@H]2CC[C@]2(C)C(N(C)C)CC[C@@H]12 (some centres not stated)",
    "Class": "met"
  },
  {
    "Molecule": "CN(C)C1[C@H](O)C[C@H]2[C@@H]3CCc4cc(O)ccc4[C@H]3CC[C@]12C (some centres not stated)",
    "Class": "met"
  },
  {
    "Molecule": "CC(C)NCC(O)COc1ccc2c(c1)CC[C@@H]1[C@@H]2CC[C@]2(C)C(N(C)C)[C@H](O)C[C@@H]12 (some centres not stated)",
    "Class": "met"
  }
]

Origin of values: ChEMBL document CHEMBL1123397
